# inhibition at 0.041 µM listing for each entry below
Target: FGFR1 (Homo sapiens (Human))
Sequence (P11362 22-822): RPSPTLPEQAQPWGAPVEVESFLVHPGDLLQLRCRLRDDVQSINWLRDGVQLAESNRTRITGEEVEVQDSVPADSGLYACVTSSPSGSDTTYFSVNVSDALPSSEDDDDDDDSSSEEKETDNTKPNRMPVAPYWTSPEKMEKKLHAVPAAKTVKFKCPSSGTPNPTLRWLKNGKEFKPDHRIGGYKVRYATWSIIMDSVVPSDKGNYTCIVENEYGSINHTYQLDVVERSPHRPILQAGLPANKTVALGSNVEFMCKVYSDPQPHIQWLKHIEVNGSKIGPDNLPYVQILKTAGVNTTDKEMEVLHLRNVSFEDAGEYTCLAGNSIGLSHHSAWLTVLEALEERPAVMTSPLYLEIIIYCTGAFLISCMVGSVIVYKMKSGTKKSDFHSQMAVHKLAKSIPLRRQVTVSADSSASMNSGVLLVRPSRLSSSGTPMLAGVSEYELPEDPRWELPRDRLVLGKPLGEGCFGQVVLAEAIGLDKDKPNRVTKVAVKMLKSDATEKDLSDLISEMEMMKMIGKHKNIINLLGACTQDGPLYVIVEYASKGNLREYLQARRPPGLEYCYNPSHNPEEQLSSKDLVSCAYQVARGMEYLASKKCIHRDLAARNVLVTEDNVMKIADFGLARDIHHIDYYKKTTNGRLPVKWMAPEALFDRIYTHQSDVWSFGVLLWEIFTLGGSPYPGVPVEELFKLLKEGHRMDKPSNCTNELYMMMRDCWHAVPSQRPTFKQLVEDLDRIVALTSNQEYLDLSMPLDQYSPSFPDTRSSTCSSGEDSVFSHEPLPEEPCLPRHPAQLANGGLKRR
Test: Z'-LYTE kinase inhibition assay, FGFR1
Assay type: biochemical
Conditions: compound at 0.041 μM; read-out: % inhibition against FGFR1

COMPOUND	MEASUREMENT_TARGET	inhibition at 0.041 µM
C=CC(=O)Nc1cccc(-c2cccc3cnc(Nc4ccc(N5CCN(CCF)CC5)cc4)nc23)c1 [Example C053]	FGFR1 (Homo sapiens (Human))	> 50%
C=CC(=O)Nc1cccc(-c2cccc3cnc(Nc4ccc(N5CCN(C(C)=O)CC5)nc4)nc23)c1 [Example C036]	FGFR1 (Homo sapiens (Human))	< 50%
C=CC(=O)Nc1cccc(-c2cccc3cnc(Nc4ccc(N5CCN(CCO)CC5)cc4)nc23)c1 [Example C059]	FGFR1 (Homo sapiens (Human))	> 50%
C=CC(=O)Nc1cccc(-c2cccc3cnc(Nc4ccc(N5CCN(C)CC5)c(OC)c4)nc23)c1 [Example C075]	FGFR1 (Homo sapiens (Human))	> 50%
Clc1ccccc1-c1cccc2cnc(Nc3ccc(N4CCNCC4)cc3)nc12 [Example C026]	FGFR1 (Homo sapiens (Human))	> 50%
C=CC(=O)Nc1cccc(-c2cccc3cnc(Nc4ccc(N5CCN(C)CC5)cc4F)nc23)c1 [Example C044]	FGFR1 (Homo sapiens (Human))	< 50%
C=CC(=O)Nc1cccc(-c2cccc3cnc(Nc4ccc(N5CCN(C)CC5)cc4)nc23)c1 [Example C021]	FGFR1 (Homo sapiens (Human))	> 50%
Clc1cccc(-c2cccc3cnc(Nc4ccc(N5CCOCC5)cc4)nc23)c1 [Example C008]	FGFR1 (Homo sapiens (Human))	< 50%
C=CC(=O)Nc1cccc(-c2cccc3cnc(Nc4ccc(N5CCN(C(C)=O)CC5)cc4)nc23)c1Cl [Example C051]	FGFR1 (Homo sapiens (Human))	< 50%
C=CC(=O)Nc1cccc(-c2cccc3cnc(Nc4ccc(N5CCOCC5)cc4)nc23)c1 [Example C001]	FGFR1 (Homo sapiens (Human))	> 50%
CCC(=O)Nc1cccc(-c2cccc3cnc(Nc4ccc(N5CCN(C)CC5)cc4)nc23)c1 [Example C020]	FGFR1 (Homo sapiens (Human))	> 50%
Clc1cccc(-c2cccc3cnc(Nc4ccc(N5CCNCC5)cc4)nc23)c1 [Example C025]	FGFR1 (Homo sapiens (Human))	> 50%
Fc1ccccc1-c1cccc2cnc(Nc3ccc(N4CCNCC4)cc3)nc12 [Example C031]	FGFR1 (Homo sapiens (Human))	> 50%
Fc1cccc(-c2cccc3cnc(Nc4ccc(N5CCNCC5)cc4)nc23)c1 [Example C027]	FGFR1 (Homo sapiens (Human))	> 50%
CC(=O)Nc1cccc(-c2cccc3cnc(Nc4ccc(N5CCN(C)CC5)cc4)nc23)c1 [Example C022]	FGFR1 (Homo sapiens (Human))	> 50%
Fc1ccc(OCCN2CCOCC2)cc1-c1cccc2cnc(Nc3ccc(N4CCOCC4)cc3)nc12 [Example C023]	FGFR1 (Homo sapiens (Human))	< 50%

====

The next entries give measured pIC50 for EGFR (ErbB1) (Homo sapiens (Human)).
pIC50: −log10 of the molar value.

RECORD_SMILES	pIC50
C=CC(=O)Nc1cccc(-c2cccc3cnc(Nc4ccc(N5CCN(C)CC5)nc4)nc23)c1F	> 7.00
C=CC(=O)Nc1cccc(-c2cccc3cnc(Nc4ccc(OCCOC)cc4)nc23)c1	< 6.30
C=CC(=O)Nc1cccc(-c2cccc3cnc(Nc4ccc(N5CCN(C)CC5)cc4)nc23)c1	> 7.00
C=CC(=O)Nc1cccc(-c2cccc3cnc(Nc4ccc(N5CCN(CCO)CC5)cc4)nc23)c1	> 7.00

====

Listed below: inhibition at 1 µM values for each entry.
Biological target: EGFR (ErbB1) T790M L858R (Homo sapiens (Human), UniProt P00533, L858R/T790M)
Sequence (P00533 25-1210 T790M/L858R): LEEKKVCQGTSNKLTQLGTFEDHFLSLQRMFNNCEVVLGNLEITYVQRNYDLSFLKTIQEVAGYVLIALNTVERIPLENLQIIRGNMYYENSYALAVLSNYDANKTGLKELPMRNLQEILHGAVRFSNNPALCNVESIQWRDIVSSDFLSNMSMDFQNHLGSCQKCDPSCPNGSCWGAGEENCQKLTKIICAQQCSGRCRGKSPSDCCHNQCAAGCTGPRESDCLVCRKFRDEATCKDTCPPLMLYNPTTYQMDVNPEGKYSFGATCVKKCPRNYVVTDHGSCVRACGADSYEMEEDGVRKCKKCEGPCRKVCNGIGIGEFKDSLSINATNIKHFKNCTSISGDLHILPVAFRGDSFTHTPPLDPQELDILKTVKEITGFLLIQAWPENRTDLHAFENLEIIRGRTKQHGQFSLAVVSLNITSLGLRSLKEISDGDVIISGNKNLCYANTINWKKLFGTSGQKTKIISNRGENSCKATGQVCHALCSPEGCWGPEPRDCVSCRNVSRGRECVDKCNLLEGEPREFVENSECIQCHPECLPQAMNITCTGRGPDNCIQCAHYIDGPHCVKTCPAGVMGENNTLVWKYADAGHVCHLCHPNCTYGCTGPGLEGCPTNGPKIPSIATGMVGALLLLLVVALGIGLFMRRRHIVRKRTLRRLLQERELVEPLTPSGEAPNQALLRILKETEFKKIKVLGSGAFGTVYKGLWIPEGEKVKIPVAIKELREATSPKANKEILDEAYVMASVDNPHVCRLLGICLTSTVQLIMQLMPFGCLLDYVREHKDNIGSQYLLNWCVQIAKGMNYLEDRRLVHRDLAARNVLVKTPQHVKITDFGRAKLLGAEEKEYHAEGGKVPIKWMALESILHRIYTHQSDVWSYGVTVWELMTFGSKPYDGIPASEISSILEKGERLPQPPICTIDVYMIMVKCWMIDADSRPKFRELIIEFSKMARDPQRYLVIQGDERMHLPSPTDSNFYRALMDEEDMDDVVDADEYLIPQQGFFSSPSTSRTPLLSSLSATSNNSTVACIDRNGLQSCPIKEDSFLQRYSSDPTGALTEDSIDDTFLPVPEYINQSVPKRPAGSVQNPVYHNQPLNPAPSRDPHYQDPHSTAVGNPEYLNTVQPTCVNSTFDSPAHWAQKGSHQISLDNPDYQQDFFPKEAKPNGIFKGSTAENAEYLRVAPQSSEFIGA
Test: Z'-LYTE kinase inhibition assay, EGFR L858R/T790M
Format: biochemical
Details: read-out: % inhibition against EGFR L858R/T790M (Compound at 1 μM)
OBSERVABLE: inhibition at 1 µM

RECORD_SMILES	RESULT_VALUE
CC(=O)Nc1cccc(-c2cccc3cnc(Nc4ccc(N5CCN(C)CC5)cc4)nc23)c1	> 50%
Fc1ccc(OCCN2CCOCC2)cc1-c1cccc2cnc(Nc3ccc(N4CCNCC4)cc3)nc12	> 50%
Clc1ccccc1-c1cccc2cnc(Nc3ccc(N4CCNCC4)cc3)nc12	> 50%
C=CC(=O)Nc1cccc(-c2cccc3cnc(Nc4ccc(N5CCN(CCF)CC5)cc4)nc23)c1	> 50%
Fc1cccc(-c2cccc3cnc(Nc4ccc(N5CCNCC5)cc4)nc23)c1	> 50%
Fc1ccccc1-c1cccc2cnc(Nc3ccc(N4CCNCC4)cc3)nc12	> 50%
C=CC(=O)Nc1cccc(-c2nccc3cnc(Nc4ccc(N5CCOCC5)cc4)nc23)c1	> 50%

====

Biological target: FGFR2 (Homo sapiens (Human), UniProt P21802)

RECORD_SMILES	IC50
C=CC(=O)Nc1cccc(-c2cccc3cnc(Nc4ccc(N5CCN(C)CC5)cc4)nc23)c1	< 100 nM

====

Biological target: EGFR (ErbB1) L858R (Homo sapiens (Human), UniProt P00533, L858R)
Sequence (P00533 25-1210 L858R): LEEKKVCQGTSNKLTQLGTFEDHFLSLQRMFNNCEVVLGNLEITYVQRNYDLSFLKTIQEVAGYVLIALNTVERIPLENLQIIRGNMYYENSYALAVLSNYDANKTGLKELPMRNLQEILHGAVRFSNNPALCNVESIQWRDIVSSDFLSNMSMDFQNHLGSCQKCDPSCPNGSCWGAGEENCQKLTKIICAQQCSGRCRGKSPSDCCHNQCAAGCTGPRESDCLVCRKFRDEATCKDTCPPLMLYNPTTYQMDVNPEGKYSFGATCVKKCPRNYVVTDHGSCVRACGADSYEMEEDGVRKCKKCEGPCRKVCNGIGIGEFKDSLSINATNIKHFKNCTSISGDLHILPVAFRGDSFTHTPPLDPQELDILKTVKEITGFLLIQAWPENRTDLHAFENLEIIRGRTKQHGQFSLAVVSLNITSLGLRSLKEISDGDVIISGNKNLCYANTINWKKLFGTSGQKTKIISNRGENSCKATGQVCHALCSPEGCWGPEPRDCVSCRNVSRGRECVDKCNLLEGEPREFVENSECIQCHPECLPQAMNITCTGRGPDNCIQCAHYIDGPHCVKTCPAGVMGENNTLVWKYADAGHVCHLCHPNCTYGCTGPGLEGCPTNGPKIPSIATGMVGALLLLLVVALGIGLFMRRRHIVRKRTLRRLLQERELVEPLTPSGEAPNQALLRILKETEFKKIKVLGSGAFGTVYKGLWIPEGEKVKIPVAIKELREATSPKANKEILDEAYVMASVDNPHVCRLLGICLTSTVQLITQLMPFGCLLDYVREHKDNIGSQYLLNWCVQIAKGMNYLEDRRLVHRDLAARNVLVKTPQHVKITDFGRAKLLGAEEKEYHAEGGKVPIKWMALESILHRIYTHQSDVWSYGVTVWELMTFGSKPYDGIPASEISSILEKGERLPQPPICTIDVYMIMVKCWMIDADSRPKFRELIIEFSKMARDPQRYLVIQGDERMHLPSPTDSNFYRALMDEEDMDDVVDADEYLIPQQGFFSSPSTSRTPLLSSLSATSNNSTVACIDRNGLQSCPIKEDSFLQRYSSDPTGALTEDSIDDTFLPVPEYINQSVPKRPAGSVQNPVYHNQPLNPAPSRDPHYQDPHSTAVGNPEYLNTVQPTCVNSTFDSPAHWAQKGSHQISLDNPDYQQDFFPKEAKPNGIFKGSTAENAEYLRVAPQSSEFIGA
Test: Z'-LYTE kinase inhibition assay, EGFR L858R
Format: biochemical
Settings: read-out: % inhibition against EGFR L858R (Compound at 1 μM)

MOLECULE	inhibition at 1 µM
Fc1ccccc1-c1cccc2cnc(Nc3ccc(N4CCOCC4)cc3)nc12 [Example C010]	< 50%
C=CC(=O)Nc1cccc(-c2cccc3cnc(Nc4ccc(N5CCOCC5)cc4OC)nc23)c1 [Example C002]	< 50%
C=CC(=O)Nc1cccc(-c2nccc3c(N)nc(Nc4ccc(N5CCOCC5)cc4)nc23)c1 [Example C005]	> 50%
C=CC(=O)Nc1cccc(-c2cccc3cnc(Nc4ccc(N5CCOCC5)cc4)nc23)c1 [Example C001]	> 50%
C=CC(=O)Nc1cccc(-c2nccc3cnc(Nc4ccc(N5CCOCC5)cc4)nc23)c1 [Example C012]	< 50%
Fc1cccc(-c2cccc3cnc(Nc4ccc(N5CCOCC5)cc4)nc23)c1 [Example C009]	< 50%
C=CC(=O)Nc1cccc(-c2cccc3cnc(Nc4ccc(N5CCN(C)CC5)cc4OC)nc23)c1 [Example C003]	> 50%
Fc1ccc(Cl)cc1-c1cccc2cnc(Nc3ccc(N4CCOCC4)cc3)nc12 [Example C007]	< 50%

====

Target: EGFR (ErbB1) T790M L858R (Homo sapiens (Human), UniProt P00533, L858R/T790M)
Assay: Z'-LYTE kinase inhibition assay, EGFR L858R/T790M
Type: biochemical
Details: read-out: % inhibition against EGFR L858R/T790M (Compound at 0.0137 μM)
Quick list: inhibition at 0.0137 µM per entry.

MOLECULE	inhibition at 0.0137 µM
C=CC(=O)Nc1cccc(-c2cccc3cnc(Nc4ccc(O[C@@H]5CCN(C)C5)cc4)nc23)c1 [Example C123]	> 50%
C=CC(=O)Nc1cccc(-c2cccc3cnc(Nc4cc(F)c(N5CCN(C)CC5)c(F)c4)nc23)c1 [Example C146]	> 50%
C=CC(=O)Nc1cccc(-c2cccc3cnc(Nc4ccc(OC5CN(CCF)C5)cc4)nc23)c1 [Example C078]	> 50%
C=CC(=O)Nc1cccc(-c2cccc3cnc(Nc4ccc(N5CCNC(=O)C5)cc4)nc23)c1 [Example C117]	< 50%
C=CC(=O)Nc1cccc(-c2cccc3cnc(Nc4ccc(N5CCN(C)CC5)cc4)nc23)c1Cl [Example C054]	> 50%
C=CC(=O)Nc1cc(-c2cccc3cnc(Nc4ccc(N5CCN(C)CC5)cc4)nc23)n[nH]1 [Example C132]	< 50%
C=CC(=O)Nc1cccc(-c2cccc3cnc(Nc4ccc(N5CCN(C)CC5)cc4)nc23)c1C(=O)OC [Example C101]	> 50%

====

Target: EGFR (ErbB1) T790M (Homo sapiens (Human), UniProt P00533, T790M)
Sequence (P00533 25-1210 T790M): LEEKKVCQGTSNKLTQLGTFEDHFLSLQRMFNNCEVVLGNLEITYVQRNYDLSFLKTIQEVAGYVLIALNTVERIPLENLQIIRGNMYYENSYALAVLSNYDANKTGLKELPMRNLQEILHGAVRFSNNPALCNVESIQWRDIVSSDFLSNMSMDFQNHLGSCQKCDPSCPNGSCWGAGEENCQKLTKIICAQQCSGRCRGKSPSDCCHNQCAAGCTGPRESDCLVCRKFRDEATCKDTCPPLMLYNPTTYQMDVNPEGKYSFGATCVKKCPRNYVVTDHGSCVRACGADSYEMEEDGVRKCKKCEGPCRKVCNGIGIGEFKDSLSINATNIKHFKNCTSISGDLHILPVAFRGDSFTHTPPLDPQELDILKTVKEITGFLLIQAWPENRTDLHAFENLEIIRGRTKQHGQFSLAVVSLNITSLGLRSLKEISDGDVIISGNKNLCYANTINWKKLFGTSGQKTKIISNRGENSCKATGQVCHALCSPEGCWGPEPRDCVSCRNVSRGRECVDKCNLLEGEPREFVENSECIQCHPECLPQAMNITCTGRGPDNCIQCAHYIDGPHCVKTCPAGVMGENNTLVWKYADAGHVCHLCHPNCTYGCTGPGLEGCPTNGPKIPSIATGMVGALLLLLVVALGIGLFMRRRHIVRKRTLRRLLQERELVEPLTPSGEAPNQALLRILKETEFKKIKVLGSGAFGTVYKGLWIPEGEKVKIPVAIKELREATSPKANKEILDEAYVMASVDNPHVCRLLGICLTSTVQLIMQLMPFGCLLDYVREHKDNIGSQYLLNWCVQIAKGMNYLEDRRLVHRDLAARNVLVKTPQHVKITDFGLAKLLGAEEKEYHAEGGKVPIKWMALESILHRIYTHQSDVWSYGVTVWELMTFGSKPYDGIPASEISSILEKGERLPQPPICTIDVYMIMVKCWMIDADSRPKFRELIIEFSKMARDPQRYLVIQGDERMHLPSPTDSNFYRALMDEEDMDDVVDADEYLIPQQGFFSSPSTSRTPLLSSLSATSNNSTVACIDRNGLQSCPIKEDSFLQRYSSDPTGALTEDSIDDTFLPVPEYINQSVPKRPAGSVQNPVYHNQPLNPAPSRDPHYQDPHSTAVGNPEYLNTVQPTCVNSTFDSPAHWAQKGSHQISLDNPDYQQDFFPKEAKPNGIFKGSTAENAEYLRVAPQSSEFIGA
Assay: Z'-LYTE kinase inhibition assay, EGFR T790M
Format: biochemical
Settings: read-out: % inhibition against EGFR T790M (Compound at 1 μM)

RECORD_SMILES	MEASUREMENT_TARGET	inhibition at 1 µM
Fc1ccc(Cl)cc1-c1cccc2cnc(Nc3ccc(N4CCOCC4)cc3)nc12	EGFR (ErbB1) T790M (Homo sapiens (Human), UniProt P00533, T790M)	< 50%
C=CC(=O)Nc1cccc(-c2nccc3cnc(Nc4ccc(N5CCOCC5)cc4)nc23)c1	EGFR (ErbB1) T790M (Homo sapiens (Human), UniProt P00533, T790M)	> 50%
C=CC(=O)Nc1cccc(-c2nccc3c(N)nc(Nc4ccc(N5CCOCC5)cc4)nc23)c1	EGFR (ErbB1) T790M (Homo sapiens (Human), UniProt P00533, T790M)	< 50%

====

Biological target: BTK (Homo sapiens (Human))
Sequence (Q06187 whole entry): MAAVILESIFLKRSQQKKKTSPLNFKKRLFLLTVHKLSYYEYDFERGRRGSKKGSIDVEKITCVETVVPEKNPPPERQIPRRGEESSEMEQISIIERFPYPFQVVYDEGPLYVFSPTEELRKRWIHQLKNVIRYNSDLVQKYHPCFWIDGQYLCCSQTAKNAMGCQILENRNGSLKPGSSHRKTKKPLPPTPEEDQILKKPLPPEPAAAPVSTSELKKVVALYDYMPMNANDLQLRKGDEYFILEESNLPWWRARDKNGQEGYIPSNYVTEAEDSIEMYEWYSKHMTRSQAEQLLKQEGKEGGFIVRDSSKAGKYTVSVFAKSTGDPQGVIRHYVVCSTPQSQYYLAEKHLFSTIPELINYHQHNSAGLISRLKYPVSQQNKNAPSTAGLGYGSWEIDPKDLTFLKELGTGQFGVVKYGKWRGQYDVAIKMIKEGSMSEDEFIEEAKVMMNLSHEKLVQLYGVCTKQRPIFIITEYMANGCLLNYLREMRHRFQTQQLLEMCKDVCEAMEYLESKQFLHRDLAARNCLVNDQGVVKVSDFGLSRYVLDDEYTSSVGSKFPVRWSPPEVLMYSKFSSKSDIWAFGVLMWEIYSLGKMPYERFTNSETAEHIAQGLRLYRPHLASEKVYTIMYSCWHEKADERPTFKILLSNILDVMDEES
Test: Z'-LYTE kinase inhibition assay, BTK
Type: biochemical
Settings: compound at 0.041 μM; read-out: % inhibition against BTK
Description: Inhibitory activities of compounds against BTK, EGFR and EGFR mutants (EGFR L858R, EGFR T790M, EGFR L858R/T790M), FGFR1, FGFR2, JAK2, JAK3 and KDR were measured by Invitrogen using Z'-LYTE® Method as briefly described in the following. Test Compounds are screened in 1% DMSO (final) in the well. […] The mixture is then incubated for another 60-minute at room temperature for development reaction. Finally fluorescence is read by plate reader. […]
A collection of compounds and their measured inhibition at 0.041 µM

RECORD_SMILES	inhibition at 0.041 µM
C=CC(=O)Nc1cccc(-c2cccc3cnc(Nc4ccc(OC5CCN(C)CC5)cc4)nc23)c1	> 50%
Clc1cccc(-c2cccc3cnc(Nc4ccc(N5CCOCC5)cc4)nc23)c1	< 50%
C=CC(=O)Nc1cccc(-c2cccc3cnc(Nc4ccc(N5CCNC(=O)C5)cc4)nc23)c1	> 50%
C=CC(=O)Nc1cccc(-c2nccc3cnc(Nc4ccc(N5CCOCC5)cc4)nc23)c1	> 50%
